Assay: AUC (0 to t) in Sprague-Dawley rat at 5 mg/kg, iv measured upto 24 hrs by LC/MS/MS analysis
Assay type: ADME, organism-based
Design: time < 24 hrs, dose 5 mg/kg, route iv
Conditions: in vivo
experimental.endpoint: AUC(0-t) at 24 h (ng·h/mL)

[P] Cc1cccc(F)c1NC(=O)c1cnc(Nc2ccc(N3CCN(C)CC3)c(F)c2)nc1NC1CCC1
[Q] Cc1cccc(F)c1NC(=O)c1cnc(Nc2ccc(N3CCN(C)CC3)c(F)c2)nc1NC1CC1
[R] COc1ccc(N(C(=O)Nc2c(C)cccc2C)c2cc(Nc3ccc(N4CCN(C)CC4)cc3)ncn2)c(OC)c1
Ask: Arrange the 3 compounds by rising AUC(0-t) at 24 h, starting with the smallest. Use the labels to give the ranking in the order requested.
Result: R, Q, P
(R: 1110 ng·h/mL, Q: 1850 ng·h/mL, P: 20300 ng·h/mL)

====

Target: Serine/threonine-protein kinase SIK3 (Homo sapiens, UniProt Q9Y2K2)
Sequence (Q9Y2K2 whole entry): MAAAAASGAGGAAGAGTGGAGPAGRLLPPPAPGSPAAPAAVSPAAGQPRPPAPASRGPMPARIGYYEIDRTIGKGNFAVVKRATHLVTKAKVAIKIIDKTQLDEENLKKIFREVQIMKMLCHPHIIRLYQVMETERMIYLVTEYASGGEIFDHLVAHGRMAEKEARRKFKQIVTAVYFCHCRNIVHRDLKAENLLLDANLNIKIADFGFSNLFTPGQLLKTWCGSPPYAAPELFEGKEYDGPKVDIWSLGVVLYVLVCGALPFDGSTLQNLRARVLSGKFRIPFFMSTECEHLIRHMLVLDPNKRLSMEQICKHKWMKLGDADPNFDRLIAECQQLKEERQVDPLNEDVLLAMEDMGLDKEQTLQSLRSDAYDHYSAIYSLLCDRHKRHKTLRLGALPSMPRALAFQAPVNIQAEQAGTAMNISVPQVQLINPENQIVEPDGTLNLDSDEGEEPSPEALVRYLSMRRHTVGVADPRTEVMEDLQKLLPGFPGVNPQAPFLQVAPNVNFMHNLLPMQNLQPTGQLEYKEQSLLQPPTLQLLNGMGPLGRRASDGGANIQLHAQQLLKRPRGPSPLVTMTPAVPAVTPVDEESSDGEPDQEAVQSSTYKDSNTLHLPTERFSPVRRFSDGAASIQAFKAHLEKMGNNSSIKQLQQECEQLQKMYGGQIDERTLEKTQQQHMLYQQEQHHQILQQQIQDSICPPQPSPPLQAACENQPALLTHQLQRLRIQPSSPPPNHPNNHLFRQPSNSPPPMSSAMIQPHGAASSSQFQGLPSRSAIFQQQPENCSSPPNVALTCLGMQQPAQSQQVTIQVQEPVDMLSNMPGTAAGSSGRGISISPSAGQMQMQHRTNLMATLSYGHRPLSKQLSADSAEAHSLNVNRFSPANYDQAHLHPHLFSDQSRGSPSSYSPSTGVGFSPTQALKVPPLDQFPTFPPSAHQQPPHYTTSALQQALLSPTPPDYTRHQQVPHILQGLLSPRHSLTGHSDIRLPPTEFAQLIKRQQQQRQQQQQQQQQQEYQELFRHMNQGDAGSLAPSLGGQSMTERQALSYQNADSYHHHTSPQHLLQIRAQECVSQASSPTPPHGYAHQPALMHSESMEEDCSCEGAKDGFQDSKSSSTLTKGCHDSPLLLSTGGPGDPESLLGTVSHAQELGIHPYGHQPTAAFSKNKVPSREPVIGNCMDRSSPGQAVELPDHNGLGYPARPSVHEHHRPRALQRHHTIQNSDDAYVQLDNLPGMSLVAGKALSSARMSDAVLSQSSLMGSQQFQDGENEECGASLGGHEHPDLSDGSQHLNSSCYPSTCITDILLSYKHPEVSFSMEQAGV
experimental.endpoint: pIC50
Worth noting: pIC50 values are minus log10 of concentrations stated in mol/L.

Ask: Would you please give the reported pIC50 of `Cc1cccc(F)c1NC(=O)c1cnc(Nc2ccc(N3CCN(C)CC3)c(F)c2)nc1NC1CC1` with Serine/threonine-protein kinase SIK3 (Homo sapiens, UniProt Q9Y2K2)?
Result: 7.29

====

Biological target: Serine/threonine-protein kinase SIK2 (Homo sapiens)
Sequence (Q9H0K1 whole entry, looked up): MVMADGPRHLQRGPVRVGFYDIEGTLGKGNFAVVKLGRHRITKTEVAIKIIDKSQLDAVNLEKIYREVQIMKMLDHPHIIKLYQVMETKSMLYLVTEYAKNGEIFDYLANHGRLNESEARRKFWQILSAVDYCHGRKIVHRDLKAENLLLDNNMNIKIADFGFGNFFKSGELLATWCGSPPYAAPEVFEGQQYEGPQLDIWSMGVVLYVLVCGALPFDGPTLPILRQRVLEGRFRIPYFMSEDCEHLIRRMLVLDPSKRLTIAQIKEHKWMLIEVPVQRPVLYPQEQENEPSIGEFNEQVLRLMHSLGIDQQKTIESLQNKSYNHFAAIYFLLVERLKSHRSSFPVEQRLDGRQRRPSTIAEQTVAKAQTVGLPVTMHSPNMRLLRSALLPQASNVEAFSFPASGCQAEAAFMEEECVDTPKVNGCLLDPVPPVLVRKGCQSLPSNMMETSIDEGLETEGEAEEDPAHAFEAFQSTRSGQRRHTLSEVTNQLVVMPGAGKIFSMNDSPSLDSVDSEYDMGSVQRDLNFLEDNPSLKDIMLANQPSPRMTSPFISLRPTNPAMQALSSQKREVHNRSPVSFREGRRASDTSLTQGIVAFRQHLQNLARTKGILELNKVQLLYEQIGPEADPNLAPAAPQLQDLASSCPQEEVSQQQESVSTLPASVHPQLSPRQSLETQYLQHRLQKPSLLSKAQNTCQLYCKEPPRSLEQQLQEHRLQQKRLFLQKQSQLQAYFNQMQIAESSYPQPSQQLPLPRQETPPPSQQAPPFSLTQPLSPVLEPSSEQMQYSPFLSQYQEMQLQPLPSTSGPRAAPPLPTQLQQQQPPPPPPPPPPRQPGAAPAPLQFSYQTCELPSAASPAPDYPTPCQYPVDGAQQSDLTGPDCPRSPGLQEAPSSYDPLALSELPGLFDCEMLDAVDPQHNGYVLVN
Assay: Inhibition of SIK2 (unknown origin) assessed as residual activity at 0.1 uM relative to control
experimental.endpoint: Activity (%)

1) Cc1cccc(Br)c1NC(=O)c1cnc(Nc2ccc(N3CCN(C)CC3)cc2)nc1NC1CCC1 | 52
2) Cc1cccc(F)c1NC(=O)c1cnc(Nc2ccc(N3CCN(C)CC3)cc2)nc1NC1CCC1 | 1
3) CN1CCN(c2ccc(Nc3ncc(C(=O)Nc4ccccc4F)c(NC4CCC4)n3)cc2)CC1 | 22

[A] COc1cccc(C)c1NC(=O)c1cnc(Nc2ccc(N3CCN(C)CC3)cc2)nc1NC1CCC1
[B] Cc1cccc(Cl)c1NC(=O)c1cnc(Nc2ccc(N3CCN(C)CC3)cc2)nc1NC1CCC1
[C] CN1CCN(c2ccc(Nc3ncc(C(=O)Nc4c(F)cccc4F)c(NC4CCC4)n3)cc2)CC1
Ask: Sequence the entries by Activity, beginning with the highest number. Provide the ranking by listing each label in its place in the requested order.
Result: A, B, C

====

Test: Metabolic stability in mouse liver microsomes assessed as half life
Assay type: ADME, Microsome
experimental.endpoint: half-life (min)

[A] COc1ccc(N2C(=O)N(c3c(C)cccc3Cl)Cc3cnc(Nc4ccc(N5CCN(C)CC5)cc4)nc32)nc1
[B] COc1ccc(N(C(=O)Nc2c(C)cccc2C)c2cc(Nc3ccc(N4CCN(C)CC4)cc3)ncn2)c(OC)c1
Ask: Rank A against B by their half-life values and give the higher one. Use the label to indicate which entry you chose.
Result: A
(A: 27 min, B: 11 min)

====

Assay: Oral bioavailability in Sprague-Dawley rat at 10 mg/kg measured upto 24 hrs by LC/MS/MS analysis
Type: ADME, organism-based
Conditions: in vivo
experimental.endpoint: bioavailability (%)
Express your answer in %, writing the number without its unit.

Ask: Note bioavailability for the molecule shown: `Cc1cccc(F)c1NC(=O)c1cnc(Nc2ccc(N3CCN(C)CC3)c(F)c2)nc1NC1CCC1`
Result: 23

====

Assay: AUC (0 to t) in Sprague-Dawley rat at 10 mg/kg, po measured upto 24 hrs by LC/MS/MS analysis
Format: ADME, organism-based
Set-up: dose 10 mg/kg, time < 24 hrs, route po
Conditions: in vivo
experimental.endpoint: AUC(0-t) at 24 h (ng·h/mL)
Give the number; ng·h/mL is assumed, so skip it.

Ask: For the compound `Cc1cccc(F)c1NC(=O)c1cnc(Nc2ccc(N3CCN(C)CC3)c(F)c2)nc1NC1CCC1` , give its measured AUC(0-t) at 24 h value.
Result: 9340

====

Experiment: Cmax in Sprague-Dawley rat at 10 mg/kg, po measured upto 24 hrs by LC/MS/MS analysis
Format: ADME, organism-based
Parameters: dose 10 mg/kg, time < 24 hrs, route po
Settings: in vivo
experimental.endpoint: Cmax (ng/mL)
Field: numeric (ng/mL). Do not append units.

Ask: Consider the molecule `Cc1cccc(F)c1NC(=O)c1cnc(Nc2ccc(N3CCN(C)CC3)c(F)c2)nc1NC1CCC1` and give its recorded Cmax.
Result: 572

====

Assay: Clearance in Sprague-Dawley rat at 10 mg/kg, po measured upto 24 hrs by LC/MS/MS analysis
Type: ADME, organism-based
Details: in vivo
experimental.endpoint: CL/F (mL/min/kg)
The figure you give is taken to be in mL/min/kg; do not add the unit.

Ask: Please supply the value of reported CL/F for the item `Cc1cccc(F)c1NC(=O)c1cnc(Nc2ccc(N3CCN(C)CC3)c(F)c2)nc1NC1CCC1`
Result: 11.7

====

Assay: Tmax in Sprague-Dawley rat at 5 mg/kg, po measured upto 24 hrs by LC/MS/MS analysis
Assay type: ADME, organism-based
Details: in vivo
experimental.endpoint: Tmax (h)

[A] Cc1cccc(F)c1NC(=O)c1cnc(Nc2ccc(N3CCN(C)CC3)c(F)c2)nc1NC1CC1
[B] COc1ccc(N(C(=O)Nc2c(C)cccc2C)c2cc(Nc3ccc(N4CCN(C)CC4)cc3)ncn2)c(OC)c1
Ask: Endpoint returns whichever of A and B has the numerically higher Tmax. Answer = label.
Result: A
(A: 3.7 h, B: 1.3 h)

====

Test: Metabolic stability in human liver microsomes assessed as half life
Assay type: ADME, Microsome
experimental.endpoint: half-life (min)

1) COc1cc(Nc2ncc(C(=O)Nc3c(C)cccc3C)c(NC3CCC3)n2)ccc1N1CCN(C)CC1 | 48.6

[1] Cc1cccc(C)c1NC(=O)c1cnc(Nc2ccc(CN3CCOCC3)cc2)nc1NC1CCC1
[2] Cc1cccc(C)c1NC(=O)c1cnc(Nc2ccc(N3CCN(C)CC3)cc2)nc1NC1CC1
Ask: Which value of half-life is greater, the one for 1 or the one for 2 ? Write the label of whichever entry you select.
Result: 2
(2: 40.8 min, 1: 6.5 min)

[P] COc1cccc(C)c1NC(=O)c1cnc(Nc2ccc(N3CCN(C)CC3)cc2)nc1NC1CCC1
[Q] Cc1cccc(F)c1NC(=O)c1cnc(Nc2ccc(N3CCN(C)CC3)c(F)c2)nc1NC1CC1
Ask: I'm curious, which of these has a smaller half-life number: P or Q ? Record your answer as the label of the chosen record.
Result: P

====

Test: Tmax in Sprague-Dawley rat at 5 mg/kg, iv measured upto 24 hrs by LC/MS/MS analysis
Type: ADME, organism-based
Conditions: in vivo
experimental.endpoint: Tmax (min)

1. COc1ccc(N(C(=O)Nc2c(C)cccc2C)c2cc(Nc3ccc(N4CCN(C)CC4)cc3)ncn2)c(OC)c1 | 6
2. Cc1cccc(F)c1NC(=O)c1cnc(Nc2ccc(N3CCN(C)CC3)c(F)c2)nc1NC1CC1 | 6
3. Cc1cccc(F)c1NC(=O)c1cnc(Nc2ccc(N3CCN(C)CC3)c(F)c2)nc1NC1CCC1 | 6

====

Experiment: Metabolic stability in human liver microsomes assessed as half life
Assay type: ADME, Microsome
experimental.endpoint: half-life (h)

1. Cc1cccc(Cl)c1NC(=O)c1cnc(Nc2ccc(N3CCN(C)CC3)cc2)nc1NC1CCC1 | 0.722
2. Cc1cccc(C)c1NC(=O)c1cnc(Nc2ccc(N3CCN(C)CC3)c(F)c2)nc1NC1CCC1 | 1.04
3. CN1CCN(c2ccc(Nc3ncc(C(=O)Nc4c(F)cccc4F)c(NC4CCC4)n3)cc2)CC1 | 0.825
4. Cc1cccc(C)c1NC(=O)c1cnc(Nc2ccc(N3CCN(C)CC3)c(F)c2)nc1NC1CC1 | 1
5. Cc1cccc(F)c1NC(=O)c1cnc(Nc2ccc(N3CCN(C)CC3)cc2)nc1NC1CCC1 | 1.16
6. Cc1cccc(C)c1NC(=O)c1cnc(Nc2ccc(N3CCN(C)CC3)c(Cl)c2)nc1NC1CCC1 | 0.943

====

Assay: Clearance in Sprague-Dawley rat at 5 mg/kg, iv measured upto 24 hrs by LC/MS/MS analysis
Assay type: ADME, organism-based
Settings: in vivo
experimental.endpoint: clearance (mL/min/kg)

[I] COc1ccc(N(C(=O)Nc2c(C)cccc2C)c2cc(Nc3ccc(N4CCN(C)CC4)cc3)ncn2)c(OC)c1
[II] Cc1cccc(F)c1NC(=O)c1cnc(Nc2ccc(N3CCN(C)CC3)c(F)c2)nc1NC1CCC1
[III] Cc1cccc(F)c1NC(=O)c1cnc(Nc2ccc(N3CCN(C)CC3)c(F)c2)nc1NC1CC1
Ask: Order by clearance, ascending. Would you mind listing the labels in the order asked for?
Result: II, III, I

====

Experiment: Protein binding in mouse plasma
Type: ADME, cell-free
Conditions: read-out: PPB
experimental.endpoint: fraction unbound

Ask: Note fraction unbound for the molecule shown: `COc1ccc(N2C(=O)N(c3c(C)cccc3Cl)Cc3cnc(Nc4ccc(C5CCN(C)CC5)cc4OC)nc32)nc1`
Result: > 0.06
